Data origin: patent US20220249597A1

# experimentalTarget: MIF (Homo sapiens, UniProt P14174)
# Sequence (P14174 2-115 limits assumed): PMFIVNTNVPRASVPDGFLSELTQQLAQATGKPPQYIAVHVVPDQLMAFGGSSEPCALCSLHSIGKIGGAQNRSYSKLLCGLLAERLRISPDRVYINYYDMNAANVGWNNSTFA
# testProtocol: MIF nuclease assay with small DNA substrates
# Format: biochemical
# Design: GST (N, cleaved yes); made in house; host or cells: Escherichia coli; key: Y:yes; N:no
# conditionContext: MIF on the listed DNA substrate
{Biotin} = biotin label (IDT /5Biosg/)

substance: m7: 5′ biotin ssDNA MIF substrate, SEQ ID NO: 84 (DNA AAAAGCCTCCCAAGTAGCTGGGATTACAGG; DNA, 5' {Biotin}, backbone and methylation of C not given here)
experimentalTarget: MIF (Homo sapiens, UniProt P14174)
Exo-Nuclease Activity: Y
--
substance: m12: 5′ biotin ssDNA MIF substrate, SEQ ID NO: 89 (DNA CTCAGCCTCCCAAGTAAATGGGATTACAGG; DNA, 5' {Biotin}, backbone and methylation of C not given here)
experimentalTarget: MIF (Homo sapiens, UniProt P14174)
Exo-Nuclease Activity: Y
--
substance: m2: 5′ biotin ssDNA MIF substrate, SEQ ID NO: 79 (DNA CTCAGCCTCCAAAAAAAAAAGGATTACAGG; DNA, 5' {Biotin}, backbone and methylation of C not given here)
experimentalTarget: MIF (Homo sapiens, UniProt P14174)
Exo-Nuclease Activity: Y
